Substrate: CCCCCCCCCCCCCCCC/C=C\OC[C@@H](O)COP(=O)([O-])OCC[N+](C)(C)C
Assay: released choline by choline oxidase/peroxidase colorimetric assay, Michaelis-Menten fit
Assay type: biochemical, Thermocrispum sp. RD004668
Conditions: pH 8.0, 50 °C, 1 min, 2 mM CaCl2, substrate micelles
valueKind: kcat/Km (M⁻¹ s⁻¹)
Give bare numbers, in M⁻¹ s⁻¹.

-- ask Report measured kcat/Km; entry is LyPls-PLD (lysoplasmalogen-specific phospholipase D) (Thermocrispum sp. RD004668; N173A) (protein, recombinant from pET24/lpls-pld in E. coli BL21(DE3); purified on HisTrap HP) TTRTTDNPWLDARVLNMAHAGGENEAPANTLYAFKRAVKLGANMLELDVQSTKDDQLVVIHNATVDQTTDGTGKVRDLTFEQVHELDAAYNFIPGRHAVPGEPPESYPLRGVRTGEKKPPPGYQPSDFAIPKLADVLEAFPRTPIAIEIKGTSDADIPSFLHNAKLLARLLKKTGRTDFIVTSFNDLAVAKFHLLAPDIPIAPGMAGLAAYFLLGVKPMHGTVALQIPVRYQGLEIATPEFIRRAHADGYAVHVWFSGTAPDDEATYNRIIDSCADGLMPAYPALLERILDERGIERPGRPGVDPCG
-- reply 212000

-- ask Report measured kcat/Km; entry is LyPls-PLD (lysoplasmalogen-specific phospholipase D) (Thermocrispum sp. RD004668; F211L) (protein, recombinant from pET24/lpls-pld in E. coli BL21(DE3); purified on HisTrap HP) TTRTTDNPWLDARVLNMAHAGGENEAPANTLYAFKRAVKLGANMLELDVQSTKDDQLVVIHNATVDQTTDGTGKVRDLTFEQVHELDAAYNFIPGRHAVPGEPPESYPLRGVRTGEKKPPPGYQPSDFAIPKLADVLEAFPRTPINIEIKGTSDADIPSFLHNAKLLARLLKKTGRTDFIVTSLNDLAVAKFHLLAPDIPIAPGMAGLAAYFLLGVKPMHGTVALQIPVRYQGLEIATPEFIRRAHADGYAVHVWFSGTAPDDEATYNRIIDSCADGLMPAYPALLERILDERGIERPGRPGVDPCG
-- reply 271000

Now, please, on to the next protein.
-- ask Report measured kcat/Km; entry is LyPls-PLD (lysoplasmalogen-specific phospholipase D) (Thermocrispum sp. RD004668) (protein, recombinant from pET24/lpls-pld in E. coli BL21(DE3); purified on HisTrap HP) TTRTTDNPWLDARVLNMAHAGGENEAPANTLYAFKRAVKLGANMLELDVQSTKDDQLVVIHNATVDQTTDGTGKVRDLTFEQVHELDAAYNFIPGRHAVPGEPPESYPLRGVRTGEKKPPPGYQPSDFAIPKLADVLEAFPRTPINIEIKGTSDADIPSFLHNAKLLARLLKKTGRTDFIVTSFNDLAVAKFHLLAPDIPIAPGMAGLAAYFLLGVKPMHGTVALQIPVRYQGLEIATPEFIRRAHADGYAVHVWFSGTAPDDEATYNRIIDSCADGLMPAYPALLERILDERGIERPGRPGVDPCG
-- reply 1.37e+06
